system: HIV-1 mutant strain K103N; experiment: microbe, parasite or virus in culture; assay type: cell-based; details: Human immunodeficiency virus 1, MT4, read-out: EC50 K103N
RECORDED_METRIC: EC50

Enquiry: API: value(readout=EC50, system=HIV-1 mutant strain K103N) for record Cc1cc(C#N)cc(C)c1Oc1nc(Nc2ccc(C#N)cc2)nc(N)c1Br [ETR, etravirine, reference compound]
Return: 0.00304 µM

Enquiry: API: value(readout=EC50, system=HIV-1 mutant strain K103N) for record Cc1cc(/C=C/C#N)cc(C)c1Oc1nc(NC2CCN(Cc3ccc(P(=O)(O)O)cc3)CC2)nc2ccsc12 [compound 16]
Return: 6.27 µM

Enquiry: API: value(readout=EC50, system=HIV-1 mutant strain K103N) for record Cc1cc(/C=C/C#N)cc(C)c1Oc1nc(NC2CCN(Cc3ccc(P(=O)(OC(C)(C)C)OC(C)(C)C)cc3)CC2)nc2ccsc12 [15g]
Return: 0.0169 µM

Enquiry: API: value(readout=EC50, system=HIV-1 mutant strain K103N) for record CCOP(=O)(OCC)c1ccc(CN2CCC(Nc3nc(Oc4c(C)cc(C#N)cc4C)c4sccc4n3)CC2)cc1 [9c]
Return: ≤ 0.00462 µM

----------
target: recombinant WT HIV-1 RT (Human immunodeficiency virus type 1 group M subtype B, UniProt P03366); experiment: HIV-1 RT inhibition assay
RECORDED_METRIC: pIC50
# reply with the number alone; pIC50 is -log10 of concentration in mol/L

Enquiry: pIC50 lookup needed for `COP(=O)(OC)c1ccc(CN2CCC(Nc3nc(Oc4c(C)cc(C#N)cc4C)c4sccc4n3)CC2)cc1` , thanks.
Return: 6.46

Enquiry: pIC50 lookup needed for `Cc1cc(C#N)cc(C)c1Oc1nc(NC2CCN(Cc3ccc(P(C)(C)=O)cc3)CC2)nc2ccsc12` , thanks.
Return: 6.51

Enquiry: pIC50 lookup needed for `CCOP(=O)(OCC)c1ccc(CN2CCC(Nc3nc(Oc4c(C)cc(C#N)cc4C)c4sccc4n3)CC2)cc1` , thanks.
Return: 6.12

Enquiry: pIC50 lookup needed for Cc1cc(/C=C/C#N)cc(C)c1Oc1nc(NC2CCN(Cc3ccc(P(C)(C)=O)cc3)CC2)nc2ccsc12 [15a] , thanks.
Return: 6.47

----------
system: WT HIV-1 (IIIB); test: microbe, parasite or virus in culture; assay type: cell-based; conditions: Human immunodeficiency virus 1, IIIB, MT4, read-out: EC50 IIIB
RECORDED_METRIC: EC50 (nM)
Just the number please, in nM, no unit attached.

Enquiry: API: value(readout=EC50, system=WT HIV-1 (IIIB)) for record CCCCOP(=O)(OCCCC)c1ccc(CN2CCC(Nc3nc(Oc4c(C)cc(/C=C/C#N)cc4C)c4sccc4n3)CC2)cc1 [15d]
Return: 173

Enquiry: API: value(readout=EC50, system=WT HIV-1 (IIIB)) for record `Cc1cc(C#N)cc(C)c1Oc1nc(NC2CCN(Cc3ccc(P(=O)(OCC(F)(F)F)OCC(F)(F)F)cc3)CC2)nc2ccsc12`
Return: 33

Enquiry: API: value(readout=EC50, system=WT HIV-1 (IIIB)) for record `CCOP(=O)(OCC)c1ccc(CN2CCC(Nc3nc(Oc4c(C)cc(C#N)cc4C)c4sccc4n3)CC2)cc1`
Return: 6.9

Enquiry: API: value(readout=EC50, system=WT HIV-1 (IIIB)) for record `Cc1cc(C#N)cc(C)c1Oc1nc(NC2CCN(Cc3ccc(P(=O)(O)O)cc3)CC2)nc2ccsc12`
Return: 16500

----------
tested on: HIV-1 mutant strain K103N; experiment: microbe, parasite or virus in culture; format: cell-based; conditions: Human immunodeficiency virus 1, MT4, read-out: EC50 K103N
RECORDED_METRIC: pEC50
# reply with the number alone; pEC50 is -log10 of concentration in mol/L

Enquiry: pEC50 lookup needed for Cc1cc(/C=C/C#N)cc(C)c1Oc1nc(NC2CCN(Cc3ccc(P(=O)(OC(C)C)OC(C)C)cc3)CC2)nc2ccsc12 [15f] , thanks.
Return: 7.39

Enquiry: pEC50 lookup needed for Cc1cc(/C=C/C#N)cc(C)c1Oc1nc(NC2CCN(Cc3ccc(P(=O)(OCC(F)(F)F)OCC(F)(F)F)cc3)CC2)nc2ccsc12 [15e] , thanks.
Return: 6.86

Enquiry: pEC50 lookup needed for CCCCOP(=O)(OCCCC)c1ccc(CN2CCC(Nc3nc(Oc4c(C)cc(C#N)cc4C)c4sccc4n3)CC2)cc1 [9d] , thanks.
Return: 6.71

Enquiry: pEC50 lookup needed for CCOP(=O)(OCC)c1ccc(CN2CCC(Nc3nc(Oc4c(C)cc(/C=C/C#N)cc4C)c4sccc4n3)CC2)cc1 [15c] , thanks.
Return: 7.81

----------
system: WT HIV-1 (IIIB); test: microbe, parasite or virus in culture; assay type: cell-based; conditions: Human immunodeficiency virus 1, IIIB, MT4, read-out: EC50 IIIB
Labelling: EC50 reported below 30 nM becomes T; at or above becomes F.

Enquiry: # TODO verify EC50 < 30 nM strictly for this compound: Cc1cc(/C=C/C#N)cc(C)c1Oc1nc(NC2CCN(Cc3ccc(P(=O)(OCC(C)C)OCC(C)C)cc3)CC2)nc2ccsc12 [15h]
Return: F

Enquiry: # TODO verify EC50 < 30 nM strictly for this compound: COP(=O)(OC)c1ccc(CN2CCC(Nc3nc(Oc4c(C)cc(C#N)cc4C)c4sccc4n3)CC2)cc1 [9b]
Return: T

Enquiry: # TODO verify EC50 < 30 nM strictly for this compound: Cc1cc(C#N)cc(C)c1Oc1nc(NC2CCN(Cc3ccc(P(=O)(OC(C)(C)C)OC(C)(C)C)cc3)CC2)nc2ccsc12 [9g]
Return: F

Enquiry: # TODO verify EC50 < 30 nM strictly for this compound: Cc1cc(C#N)cc(C)c1Oc1nc(NC2CCN(Cc3ccc(P(=O)(OC(C)C)OC(C)C)cc3)CC2)nc2ccsc12 [9f]
Return: T

Enquiry: # TODO verify EC50 < 30 nM strictly for this compound: Cc1cc(/C=C/C#N)cc(C)c1Oc1nc(NC2CCN(Cc3ccc(P(=O)(O)O)cc3)CC2)nc2ccsc12 [compound 16]
Return: F

Enquiry: # TODO verify EC50 < 30 nM strictly for this compound: Cc1cc(/C=C/C#N)cc(C)c1Oc1nc(NC2CCN(Cc3ccc(P(=O)(OC(C)(C)C)OC(C)(C)C)cc3)CC2)nc2ccsc12 [15g]
Return: T

Enquiry: # TODO verify EC50 < 30 nM strictly for this compound: CCOP(=O)(OCC)c1ccc(CN2CCC(Nc3nc(Oc4c(C)cc(/C=C/C#N)cc4C)c4sccc4n3)CC2)cc1 [15c]
Return: T

Enquiry: # TODO verify EC50 < 30 nM strictly for this compound: Cc1cc(/C=C/C#N)cc(C)c1Oc1nc(NC2CCN(Cc3ccc(P(=O)(OCC(F)(F)F)OCC(F)(F)F)cc3)CC2)nc2ccsc12 [15e]
Return: F

----------
tested on: HIV-1 mutant strain K103N; experiment: microbe, parasite or virus in culture; type: cell-based; conditions: Human immunodeficiency virus 1, MT4, read-out: EC50 K103N
RECORDED_METRIC: log10(EC50) (log10 of the value in nM)
The figures below represent log10 of EC50, where EC50 is stated in nM.

Enquiry: log10(EC50) lookup needed for `COP(=O)(OC)c1ccc(CN2CCC(Nc3nc(Oc4c(C)cc(C#N)cc4C)c4sccc4n3)CC2)cc1` , thanks.
Return: 0.57

Enquiry: log10(EC50) lookup needed for `Cc1cc(C#N)cc(C)c1Oc1nc(NC2CCN(Cc3ccc(P(=O)(OC(C)C)OC(C)C)cc3)CC2)nc2ccsc12` , thanks.
Return: 1.35

Enquiry: log10(EC50) lookup needed for Cc1cc(/C=C/C#N)cc(C)c1Oc1nc(NC2CCN(Cc3ccc(P(C)(C)=O)cc3)CC2)nc2ccsc12 [15a] , thanks.
Return: 0.10

Enquiry: log10(EC50) lookup needed for `Cc1cc(C#N)cc(C)c1Oc1nc(NC2CCN(Cc3ccc(P(=O)(OCC(C)C)OCC(C)C)cc3)CC2)nc2ccsc12` , thanks.
Return: 1.73

Enquiry: log10(EC50) lookup needed for `Cc1cc(C#N)cc(C)c1Oc1nc(NC2CCN(Cc3ccc(P(=O)(OCC(F)(F)F)OCC(F)(F)F)cc3)CC2)nc2ccsc12` , thanks.
Return: 1.66

Enquiry: log10(EC50) lookup needed for Cc1cc(/C=C/C#N)cc(C)c1Oc1nc(NC2CCN(Cc3ccc(P(=O)(OCC(C)C)OCC(C)C)cc3)CC2)nc2ccsc12 [15h] , thanks.
Return: 2.38

Enquiry: log10(EC50) lookup needed for `Cc1cc(C#N)cc(C)c1Oc1nc(NC2CCN(Cc3ccc(P(=O)(OC(C)(C)C)OC(C)(C)C)cc3)CC2)nc2ccsc12` , thanks.
Return: 2.09

Enquiry: log10(EC50) lookup needed for `Cc1cc(C#N)cc(C)c1Oc1nc(NC2CCN(Cc3ccc(P(=O)(O)O)cc3)CC2)nc2ccsc12` , thanks.
Return: 5.17

Enquiry: log10(EC50) lookup needed for COP(=O)(OC)c1ccc(CN2CCC(Nc3nc(Oc4c(C)cc(/C=C/C#N)cc4C)c4sccc4n3)CC2)cc1 [15b] , thanks.
Return: 1.11

Enquiry: log10(EC50) lookup needed for `Cc1cc(C#N)cc(C)c1Oc1nc(NC2CCN(Cc3ccc(P(C)(C)=O)cc3)CC2)nc2ccsc12` , thanks.
Return: 0.42

Enquiry: log10(EC50) lookup needed for CCCCOP(=O)(OCCCC)c1ccc(CN2CCC(Nc3nc(Oc4c(C)cc(/C=C/C#N)cc4C)c4sccc4n3)CC2)cc1 [15d] , thanks.
Return: 2.27
